System: angiotensin-converting enzyme (ACE)
Construct: purified angiotensin-converting enzyme (ACE) from rabbit lungs; purchased Sigma, St-Louis, Mo; host or cells: purified from rabbit lungs
MEASUREMENT PROTOCOL: Metabolic degradation by purified angiotensin-converting enzyme, HPLC analysis
Type: in vitro ADME, rabbit
MEASUREMENT PARAMETERS: rabbit, isolated enzyme ace, pH 7.5
Non-standard residues stand in square brackets, D forms with d. Residues, ends and D or L forms follow the SMILES beside them. Tyr(3,5-I2) = N[C@@H](Cc1cc(I)c(O)c(I)c1)C(=O)O; d2Nal = N[C@H](Cc1ccc2ccccc2c1)C(=O)O; NMeA = CN[C@@H](C)C(=O)O; Ahx = NCCCCCC(=O)O; Sar = CNCC(=O)O
metabolised at 0.5 h, 42.1 μmol/L values by entry
Answer in %, number only, no unit symbol.

| COMPOUND | MEASUREMENT TARGET | RESULT UNIT | metabolised at 0.5 h, 42.1 μmol/L |
| --- | --- | --- | --- |
| CC[C@H](C)[C@H](NC(=O)[C@@H](Cc1ccc2ccccc2c1)NC(=O)[C@H](CO)NC(=O)[C@H](Cc1ccccc1)NC(=O)CNC(=O)[C@@H]1CCCN1C(=O)[C@@H]1CCCN1C(=O)[C@H](CCCNC(=N)N)NC(=O)[C@H](CCCCN)NC(=O)CCCCCNC(=O)[C@H](Cc1cc(I)c(O)c(I)c1)NC(=O)CNC)C(=O)O [Compound 30] (H-[Sar][Tyr(3,5-I2)][Ahx]KRPPGFS[d2Nal]I-OH; N-terminus and C-terminus assumed) | angiotensin-converting enzyme (ACE) | % | 13 |
| CC(=O)N[C@@H](Cc1ccc(O)cc1)C(=O)NCCCCCC(=O)N[C@@H](CCCCN)C(=O)N[C@@H](CCCNC(=N)N)C(=O)N1CCC[C@H]1C(=O)N1CCC[C@H]1C(=O)NCC(=O)N[C@@H](Cc1ccccc1)C(=O)N[C@@H](CO)C(=O)N1CCC[C@H]1C(=O)N[C@@H](CC(C)C)C(=O)O | angiotensin-converting enzyme (ACE) | % | 52 |

Tell me the measured metabolised at 0.5 h, 42.1 μmol/L of CC(=O)N[C@@H](CCCCN)C(=O)N[C@@H](CCCNC(=N)N)C(=O)N1CCC[C@H]1C(=O)N1CCC[C@H]1C(=O)NCC(=O)N[C@@H](Cc1ccccc1)C(=O)N(C)[C@@H](C)C(=O)N1CCC[C@H]1C(=O)N[C@@H](CC(C)C)C(=O)O [Compound 21, AcLys(N-MeAla^6, Leu^8)desArg^9BK, reference compound] (Ac-KRPPGF[NMeA]PL-OH; C-terminus assumed) , please. 0

====

MEASUREMENT TARGET: B1 receptor (Oryctolagus cuniculus)
Sequence (P48748 whole entry): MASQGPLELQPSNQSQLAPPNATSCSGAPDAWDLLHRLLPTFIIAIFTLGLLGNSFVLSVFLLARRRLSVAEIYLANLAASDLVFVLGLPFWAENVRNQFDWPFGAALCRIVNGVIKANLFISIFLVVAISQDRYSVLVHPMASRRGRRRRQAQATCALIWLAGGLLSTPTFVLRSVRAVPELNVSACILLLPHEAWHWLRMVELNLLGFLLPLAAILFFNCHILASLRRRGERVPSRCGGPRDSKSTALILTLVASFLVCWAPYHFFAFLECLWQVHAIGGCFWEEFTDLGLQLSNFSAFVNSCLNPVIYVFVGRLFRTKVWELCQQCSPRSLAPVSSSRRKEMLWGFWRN
MEASUREMENT PROTOCOL: cell-based
MEASUREMENT PARAMETERS: Rb.A. pA2, apparent affinity as antagonist vs desArg9BK; antagonist applied 10 min before; Inactive = no detectable antagonistic effect at ≦ 10 μg/ml
Non-standard residues stand in square brackets, D forms with d. Residues, ends and D or L forms follow the SMILES beside them. Hyp = O=C(O)[C@@H]1C[C@@H](O)CN1; dTic = O=C(O)[C@H]1Cc2ccccc2CN1
READOUT LABEL: Kb (nM)
// return numeric value only (unit: nM, not printed)

// Kb lookup, key: CC(C)C[C@H](NC(=O)[C@H]1Cc2ccccc2CN1C(=O)[C@H](CO)NC(=O)[C@H](Cc1ccccc1)NC(=O)CNC(=O)[C@@H]1C[C@@H](O)CN1C(=O)[C@@H]1CCCN1C(=O)[C@H](CCCNC(=N)N)NC(=O)[C@H](N)CCCNC(=N)N)C(=O)O [Compound 17, D-Arg(Hyp^3, D-Tic^7, Leu^8)desArg^9BK] (H-[dR]RP[Hyp]GFS[dTic]L-OH; N-terminus and C-terminus assumed) 229

====

MEASUREMENT TARGET: angiotensin-converting enzyme (ACE) from rabbit lungs (Oryctolagus cuniculus, UniProt P12822)
Sequence (P12822 34-1310): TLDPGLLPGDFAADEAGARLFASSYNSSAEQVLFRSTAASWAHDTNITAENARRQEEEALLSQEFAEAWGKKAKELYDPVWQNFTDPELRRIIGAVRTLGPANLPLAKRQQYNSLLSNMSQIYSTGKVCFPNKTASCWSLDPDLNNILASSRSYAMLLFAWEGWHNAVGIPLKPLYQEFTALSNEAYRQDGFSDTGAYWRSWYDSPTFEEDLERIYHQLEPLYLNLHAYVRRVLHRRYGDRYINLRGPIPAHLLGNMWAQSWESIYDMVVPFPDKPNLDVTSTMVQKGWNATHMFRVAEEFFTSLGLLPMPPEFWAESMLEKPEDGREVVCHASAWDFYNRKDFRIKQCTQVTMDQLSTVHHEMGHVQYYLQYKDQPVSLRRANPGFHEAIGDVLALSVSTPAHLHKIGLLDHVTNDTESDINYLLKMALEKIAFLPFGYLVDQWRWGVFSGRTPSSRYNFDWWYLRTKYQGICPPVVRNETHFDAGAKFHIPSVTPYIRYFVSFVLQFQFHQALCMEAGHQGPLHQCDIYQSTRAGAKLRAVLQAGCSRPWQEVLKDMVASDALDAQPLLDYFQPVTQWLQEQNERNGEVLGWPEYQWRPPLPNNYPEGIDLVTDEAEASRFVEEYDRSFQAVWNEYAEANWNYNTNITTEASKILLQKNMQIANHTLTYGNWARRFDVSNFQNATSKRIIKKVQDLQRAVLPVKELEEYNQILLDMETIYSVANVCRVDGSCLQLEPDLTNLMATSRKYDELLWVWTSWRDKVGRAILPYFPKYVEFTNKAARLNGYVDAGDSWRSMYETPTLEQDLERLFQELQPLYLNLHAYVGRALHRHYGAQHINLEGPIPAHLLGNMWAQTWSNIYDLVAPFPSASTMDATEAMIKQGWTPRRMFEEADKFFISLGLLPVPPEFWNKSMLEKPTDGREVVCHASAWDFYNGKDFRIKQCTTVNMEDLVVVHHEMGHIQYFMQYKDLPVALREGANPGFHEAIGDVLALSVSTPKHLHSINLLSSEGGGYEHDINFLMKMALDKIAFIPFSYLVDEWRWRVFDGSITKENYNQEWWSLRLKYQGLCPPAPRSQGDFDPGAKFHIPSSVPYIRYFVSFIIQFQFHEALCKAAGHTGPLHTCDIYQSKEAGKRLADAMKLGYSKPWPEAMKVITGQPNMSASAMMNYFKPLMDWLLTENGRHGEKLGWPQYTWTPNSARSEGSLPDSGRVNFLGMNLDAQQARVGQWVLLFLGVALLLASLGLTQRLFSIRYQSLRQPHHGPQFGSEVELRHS
MEASUREMENT PROTOCOL: Metabolic degradation by purified angiotensin-converting enzyme, HPLC analysis
Assay type: in vitro ADME
Design: purified angiotensin-converting enzyme (ACE) from rabbit lungs; purchased Sigma, St-Louis, Mo; host or cells: purified from rabbit lungs
Non-standard residues stand in square brackets, D forms with d. Residues, ends and D or L forms follow the SMILES beside them. d2Nal = N[C@H](Cc1ccc2ccccc2c1)C(=O)O; dTic = O=C(O)[C@H]1Cc2ccccc2CN1; Sar = CNCC(=O)O
Less susceptible to ACE proteolytic degradation, relative to Lys(Leu8)desArgBK reference

Recorded results for 2 molecules are shown here.
| MOLECULE | ENDPOINT VALUE |
| --- | --- |
| CC[C@H](C)[C@H](NC(=O)[C@@H](Cc1ccc2ccccc2c1)NC(=O)[C@H](CO)NC(=O)[C@H](Cc1ccccc1)NC(=O)CNC(=O)[C@@H]1CCCN1C(=O)[C@@H]1CCCN1C(=O)[C@H](CCCNC(=N)N)NC(=O)[C@H](N)CCCNC(=N)N)C(=O)O [Compound 23, D-Arg(D-βNal^7, Ile^8)desArg^9BK] (H-[dR]RPPGFS[d2Nal]I-OH; N-terminus and C-terminus assumed) | 2-5 times |
| CC(C)C[C@H](NC(=O)[C@@H](Cc1ccc2ccccc2c1)NC(=O)[C@H](CO)NC(=O)[C@H](Cc1ccccc1)NC(=O)CNC(=O)[C@@H]1CCCN1C(=O)[C@@H]1CCCN1C(=O)[C@H](CCCNC(=N)N)NC(=O)[C@H](N)CCCNC(=N)N)C(=O)O [Compound 24, D-Arg(D-βNal^7, Leu^8)desArg^9BK] (H-[dR]RPPGFS[d2Nal]L-OH; N-terminus and C-terminus assumed) | 2-5 times |

Continue with the molecule presented below.
Which Less susceptible to ACE proteolytic degradation, relative to Lys(Leu8)desArgBK reading was recorded for the molecule CNCC(=O)N[C@@H](CCCNC(=N)N)C(=O)N1CCC[C@H]1C(=O)N1CCC[C@H]1C(=O)NCC(=O)N[C@@H](Cc1ccccc1)C(=O)N[C@@H](CO)C(=O)N1Cc2ccccc2C[C@@H]1C(=O)N[C@@H](CC(C)C)C(=O)O [Compound 9, Sar(D-Tic^7, Leu^8)desArg^9BK] (H-[Sar]RPPGFS[dTic]L-OH; N-terminus and C-terminus assumed) ? 2-5 times

====

MEASUREMENT TARGET: B2 receptor (Oryctolagus cuniculus, UniProt Q28642)
Sequence (Q28642 whole entry): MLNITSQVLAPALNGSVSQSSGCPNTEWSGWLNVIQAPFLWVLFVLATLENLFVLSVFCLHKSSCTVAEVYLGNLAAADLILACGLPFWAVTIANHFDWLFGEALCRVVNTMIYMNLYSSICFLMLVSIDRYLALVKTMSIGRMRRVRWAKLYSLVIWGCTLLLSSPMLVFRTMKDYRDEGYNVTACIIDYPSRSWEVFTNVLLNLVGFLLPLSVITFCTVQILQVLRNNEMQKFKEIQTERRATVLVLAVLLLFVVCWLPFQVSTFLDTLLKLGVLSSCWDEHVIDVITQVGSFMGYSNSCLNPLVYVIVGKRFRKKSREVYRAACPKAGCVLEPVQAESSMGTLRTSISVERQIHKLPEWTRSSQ
MEASUREMENT PROTOCOL: cell-based
Experimental: Tissues were taken from New Zealand white rabbits (1.5–2.5 kg) and Dunken Hartley guinea pigs (250–350 g) of either sex, killed by stunning and exsanguination. […] Changes of tension produced by the various agents were measured with Grass isometric transducers (model FT 03C, Grass Instrument Co., Quincy, Mass.). […] Before testing the drugs, the tissues were allowed to equilibrate for 60–120 min during which time the tissues were repeatedly washed and the tension readjusted every 15 min. […]
Non-standard residues stand in square brackets, D forms with d. Residues, ends and D or L forms follow the SMILES beside them. Oic = O=C(O)[C@@H]1C[C@@H]2CCCC[C@@H]2N1; d2Nal = N[C@H](Cc1ccc2ccccc2c1)C(=O)O; Hyp = O=C(O)[C@@H]1C[C@@H](O)CN1; dTic = O=C(O)[C@H]1Cc2ccccc2CN1; 2Thi = N[C@@H](Cc1cccs1)C(=O)O
Kb values for the compounds below.

| COMPOUND | Kb |
| --- | --- |
| CC(C)C[C@H](NC(=O)[C@H]1Cc2ccccc2CN1C(=O)[C@H](CO)NC(=O)[C@H](Cc1ccccc1)NC(=O)CNC(=O)[C@@H]1C[C@@H](O)CN1C(=O)[C@@H]1CCCN1C(=O)[C@H](CCCNC(=N)N)NC(=O)[C@H](N)CCCNC(=N)N)C(=O)O [Compound 17, D-Arg(Hyp^3, D-Tic^7, Leu^8)desArg^9BK] (H-[dR]RP[Hyp]GFS[dTic]L-OH; N-terminus and C-terminus assumed) | > 9.12 µM |
| CC[C@H](C)[C@H](NC(=O)[C@@H](Cc1ccc2ccccc2c1)NC(=O)[C@H](CO)NC(=O)[C@H](Cc1ccccc1)NC(=O)CNC(=O)[C@@H]1CCCN1C(=O)[C@@H]1CCCN1C(=O)[C@H](CCCNC(=N)N)NC(=O)[C@H](N)CCCCN)C(=O)O [Compound 25, D-Lys(D-βNal^7, Ile^8)desArg^9BK] (H-[dK]RPPGFS[d2Nal]I-OH; N-terminus and C-terminus assumed) | 3.72 µM |

So what does the record say about Kb for N=C(N)NCCC[C@H](N)C(=O)N1CCC[C@H]1C(=O)N1C[C@H](O)C[C@H]1C(=O)NCC(=O)N[C@@H](Cc1cccs1)C(=O)N[C@@H](CO)C(=O)N1Cc2ccccc2C[C@@H]1C(=O)N1[C@H](C(=O)O)C[C@@H]2CCCC[C@@H]21 [Compound 32, (Hyp^3, Thi^5, D-Tic^7, Oic^8)desArg^9BK, reference compound] (H-RP[Hyp]G[2Thi]S[dTic][Oic]-OH; N-terminus and C-terminus assumed) ? 0.447 µM
